Species on record: Bos taurus
Assay: Inhibition of bovine trypsin
Conditions: concentration not given here
Overview of reported inhibition across a group of compounds:
Report the figure in % without appending any unit label.

O=C[C@H](C[C@@H]1CCNC1=O)NC(=O)[C@H](CC1CCCCC1)NC(=O)OCc1cccc(Br)c1; 0
CCOP(=O)(OCC)C(O)[C@H](C[C@@H]1CCNC1=O)NC(=O)[C@H](CC1CCCCC1)NC(=O)OCc1cccc(Br)c1 (some centres undefined); 1
CCOP(=O)(OCC)C(O)[C@H](C[C@@H]1CCNC1=O)NC(=O)[C@H](CC1CCCCC1)NC(=O)OCc1cccc(Cl)c1 (some centres undefined); 8.8

Now take the following compound into account.
Enquiry: Look at this compound and give its reported inhibition. O=C[C@H](C[C@@H]1CCNC1=O)NC(=O)[C@H](CC1CCCCC1)NC(=O)OCc1cccc(Cl)c1
Return: 5
